As an illustration, consider measured pKi for compounds on Mu-type opioid receptor (Homo sapiens, UniProt P35372).
Sequence (P35372 whole entry): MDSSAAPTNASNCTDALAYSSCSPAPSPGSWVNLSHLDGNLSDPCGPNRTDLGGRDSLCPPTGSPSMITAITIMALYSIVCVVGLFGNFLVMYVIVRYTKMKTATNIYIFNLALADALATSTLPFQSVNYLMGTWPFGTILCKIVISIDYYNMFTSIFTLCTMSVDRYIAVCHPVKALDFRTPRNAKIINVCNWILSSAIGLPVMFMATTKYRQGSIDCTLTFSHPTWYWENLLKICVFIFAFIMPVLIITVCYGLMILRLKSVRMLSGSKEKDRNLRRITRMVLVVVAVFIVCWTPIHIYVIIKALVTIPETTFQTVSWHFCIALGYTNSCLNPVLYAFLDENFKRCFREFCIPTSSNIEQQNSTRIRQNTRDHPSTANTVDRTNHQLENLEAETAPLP
pKi: −log10 of the molar value.

{"Smi": "COc1cccc([C@]2(CNC(C)=O)C[C@H]3CC[C@@H](C2)N3C(c2ccccc2Cl)c2ccccc2Cl)n1", "pKi": 6.60}
{"Smi": "Fc1ccc2c(c1)[C@]1(CN2)C[C@H]2CC[C@@H](C1)N2C(c1ccccc1Cl)c1ccccc1Cl", "pKi": 5.77}
{"Smi": "CC(=O)NC[C@@]1(c2ccccn2)C[C@H]2CC[C@@H](C1)N2C(c1ccccc1Cl)c1ccccc1Cl", "pKi": 6.43}
{"Smi": "COc1ccc([C@]2(CNC(C)=O)C[C@H]3CC[C@@H](C2)N3C(c2ccccc2Cl)c2ccccc2Cl)cc1", "pKi": 5.62}

* * *

target: Nociceptin receptor (Homo sapiens, UniProt P41146); experiment: Agonist activity at human cloned nociceptin receptor expressed in CHO cells assessed as stimulation of [35S]GTPgammaS binding
Sequence (P41146 whole entry): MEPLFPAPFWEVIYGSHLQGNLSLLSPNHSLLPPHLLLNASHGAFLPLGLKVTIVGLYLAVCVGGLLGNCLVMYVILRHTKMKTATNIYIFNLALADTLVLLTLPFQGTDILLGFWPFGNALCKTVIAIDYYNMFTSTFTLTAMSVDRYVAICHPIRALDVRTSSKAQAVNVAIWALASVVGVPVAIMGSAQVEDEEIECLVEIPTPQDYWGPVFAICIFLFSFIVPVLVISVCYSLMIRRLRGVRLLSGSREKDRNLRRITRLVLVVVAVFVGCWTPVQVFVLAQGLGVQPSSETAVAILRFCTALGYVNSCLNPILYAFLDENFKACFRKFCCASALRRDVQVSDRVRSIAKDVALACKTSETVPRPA

{"Smi": "CN(C)C[C@@]1(c2ccccn2)C[C@H]2CC[C@@H](C1)N2C(c1ccccc1Cl)c1ccccc1Cl", "EC50 [nM]": 156}
{"Smi": "CN(C)C[C@@]1(c2ccccc2)C[C@H]2CC[C@@H](C1)N2C(c1ccccc1Cl)c1ccccc1Cl", "EC50 [nM]": 483}
{"Smi": "CC(=O)NC[C@@]1(Cc2ccc(F)cc2)C[C@H]2CC[C@@H](C1)N2C(c1ccccc1Cl)c1ccccc1Cl", "EC50 [nM]": 129}
{"Smi": "CC(=O)NC[C@@]1(c2ccccc2)C[C@H]2CC[C@@H](C1)N2C(c1ccccc1Cl)c1ccccc1Cl", "EC50 [nM]": 269}
{"Smi": "NC[C@@]1(Cc2ccc(F)cc2)C[C@H]2CC[C@@H](C1)N2C(c1ccccc1Cl)c1ccccc1Cl", "EC50 [nM]": 124}

* * *

Nociceptin receptor (Homo sapiens) Ki data

{"Smi": "CC(=O)NC[C@@]1(c2ccc(F)cc2)C[C@H]2CC[C@@H](C1)N2C(c1ccccc1Cl)c1ccccc1Cl", "Unit Info": "nM", "Ki": 31}
{"Smi": "CC(=O)NC[C@@]1(c2cccc(F)n2)C[C@H]2CC[C@@H](C1)N2C(c1ccccc1Cl)c1ccccc1Cl", "Unit Info": "nM", "Ki": 24}
{"Smi": "COc1cccc([C@]2(CN)C[C@H]3CC[C@@H](C2)N3C(c2ccccc2Cl)c2ccccc2Cl)n1", "Unit Info": "nM", "Ki": 11}
{"Smi": "Clc1ccccc1C(c1ccccc1Cl)N1[C@@H]2CC[C@H]1C[C@@]1(CNc3ccccc31)C2", "Unit Info": "nM", "Ki": 50}

* * *

Collected log10 of Ki values appear next to each entry.
molecular target: Nociceptin receptor (Homo sapiens)
Parameter Measured: log10 of Ki (log10 of the value in nM)

{"Smi": "Cc1cccnc1[C@]1(CN)C[C@H]2CC[C@@H](C1)N2C(c1ccccc1Cl)c1ccccc1Cl", "log10 of Ki": 1.70}
{"Smi": "CC(=O)N(C)C[C@@]1(c2ccccc2)C[C@H]2CC[C@@H](C1)N2C(c1ccccc1Cl)c1ccccc1Cl", "log10 of Ki": 2.32}
{"Smi": "CC(=O)NC[C@@]1(c2ccccc2)C[C@H]2CC[C@@H](C1)N2C(c1ccccc1Cl)c1ccccc1Cl", "log10 of Ki": 1.30}
{"Smi": "CN(C)C[C@@]1(c2cccc(F)n2)C[C@H]2CC[C@@H](C1)N2C(c1ccccc1Cl)c1ccccc1Cl", "log10 of Ki": 2.02}
{"Smi": "NC[C@@]1(c2ncccc2CN2CCCCC2)C[C@H]2CC[C@@H](C1)N2C(c1ccccc1Cl)c1ccccc1Cl", "log10 of Ki": 2.39}
{"Smi": "CN(C)C[C@@]1(c2ccccc2)C[C@H]2CC[C@@H](C1)N2C(c1ccccc1Cl)c1ccccc1Cl", "log10 of Ki": 1.23}
{"Smi": "CCNC[C@@]1(c2cccc(OC)n2)C[C@H]2CC[C@@H](C1)N2C(c1ccccc1Cl)c1ccccc1Cl", "log10 of Ki": 1.30}
{"Smi": "Cc1ccc2c(c1)[C@]1(CN2)C[C@H]2CC[C@@H](C1)N2C(c1ccccc1Cl)c1ccccc1Cl", "log10 of Ki": 1.87}
{"Smi": "COc1ccc([C@]2(CNC(C)=O)C[C@H]3CC[C@@H](C2)N3C(c2ccccc2Cl)c2ccccc2Cl)cc1", "log10 of Ki": 2.07}
{"Smi": "NC[C@@]1(c2ccccn2)C[C@H]2CC[C@@H](C1)N2C(c1ccccc1Cl)c1ccccc1Cl", "log10 of Ki": 0.85}
{"Smi": "COc1cccc([C@]2(CNC(C)=O)C[C@H]3CC[C@@H](C2)N3C(c2ccccc2Cl)c2ccccc2Cl)n1", "log10 of Ki": 0.60}
{"Smi": "NC[C@@]1(c2cccc(F)n2)C[C@H]2CC[C@@H](C1)N2C(c1ccccc1Cl)c1ccccc1Cl", "log10 of Ki": 1.46}
{"Smi": "COC(=O)NC[C@@]1(c2ccccc2)C[C@H]2CC[C@@H](C1)N2C(c1ccccc1Cl)c1ccccc1Cl", "log10 of Ki": 1.30}
{"Smi": "CC(=O)NC[C@@]1(c2ncccc2CN2CCCCC2)C[C@H]2CC[C@@H](C1)N2C(c1ccccc1Cl)c1ccccc1Cl", "log10 of Ki": 2.83}
{"Smi": "CC(=O)NC[C@@]1(c2ccc(N3CCCCC3)cn2)C[C@H]2CC[C@@H](C1)N2C(c1ccccc1Cl)c1ccccc1Cl", "log10 of Ki": 2.00}

The measurements presented in this section are drawn from ChEMBL document CHEMBL1152183.
